biological target: T1, biotinylated chitobiose-conjugated 18-mer glycopeptide (human, also: biotinylated, site not given here); test: BLI (Octet QK), biotinylated glycopeptide on streptavidin sensor, antibody 10 ug/mL, 1:1 model
T1 construct: Cys plus T22-V38 of MUC16^c114; The range is derived from T22-V38 and the statement that c114 is 1777-1890; also called (GlcNAc2)2-18-mer, biotinylated; 18-mer(chitobiose)2[C-T22-V38]
T1 peptide: Ac-CTRN(GlcNAc2)GTQLQN(GlcNAc2)FTLDRSSV-NH2
* marks the point of attachment. GlcNAc2 = N-linked chitobiose, CC(=O)N[C@@H]1[C@@H](O)[C@H](O[C@@H]2O[C@H](CO)[C@@H](O)[C@H](O)[C@H]2NC(C)=O)[C@@H](CO)O[C@H]1*
Please respond with reported koff for every item in the list.
Output spec: scalar in s⁻¹, unitless text.

input: What value of koff has been recorded for this entry: 16C5.C1 (antibody, V domains shown, Mouse monoclonal from a hybridoma) VH: QVTLKESGPGILQPSQTLSLTCSFSGFSLNTLGMGVGWIRQPSGKGLEWLAHIWWDDDKYYYPALKSRLTISRDTSKNQVFLKIANVDTADTATYYCARIGTAQATDALDYWGQGTSVTVSS VL: ELDMTQTPPSLSASVGETVRIRCLASEDIYSGISWYQQKPGKPPTLLIYGASNLESGVPPRFSGSGSGTDYTLTIGGVQAEDAATYYCLGGYSYSSTLTFGAGTNVEIK
output: 0.00172

input: Would you mind telling me what koff value was observed for 7B12.B3 (antibody, V domains shown, Mouse monoclonal from a hybridoma; also called MUC16 Glycosylation Antibody 7B12) VH: QVTLKESGPGILQPSQTLSLTCSFSGFSLSTVGMGVGWSRQPSGKGLEWLAHIWWDDEDKYYNPALKSRLTISKDTSKNQVFLKIANVDTADSATYYCTRIGTAQATDALDYWGQGTSVTVSS VL: DIVMTQAAPSVSVTPGESVSISCRSSKSLRKSNGNTYLYWFLQRPGQSPQRLIYYMSNLASGVPDRFSGRGSGTDFTLRISRVEAEDVGVYYCMQSLEYPLTFGGGTKLKIK ?
output: 0.00104

input: Look up koff for this binder: 19C11.H6 (antibody, V domains shown, Mouse monoclonal from a hybridoma; Used as 89Zr-DFO-labelled antibody in the internalization assay; also called MUC16 Glycosylation Antibody 19C11) VH: QVNLKESGPGKLQPSQTLSLTCSFSGFSLSTLGMGVGWIRQSSGKGLEWLAHIWWDDDKYYNPALKSRLTISRATSKNQVFLKIVNVGTADTATYYCARIGTAQATDALDYWGQGTSVTVSS VL: DIVMTQAAPSIPVTPGESVSISCRSSKSLLHSNGNTYLYWFLQRPGQSPQRLIYYMSNLASGVPDRFSGRGSGTDFTLKISRVEAGDVGVYYCMQGLEHPLTFGGGTKLEIK
output: 0.00242

Sourced from patent US20180112008A1
